- Tested on: Escherichia coli TOP10;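 further: peptides expressed intracellularly from a pBAD plasmid library in pooled LB shake-flask culture, induced with 0.3% L-arabinose, DNA abundance read by NGS, three biological replicates, DESeq2 with apeglm shrinkage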
- assayProtocol: shrunken log2 fold change of peptide-encoding DNA abundance (4.5 h post-induction vs induction); higher = less antimicrobial activity (less host growth inhibition)
- testContext: time post-induction: 4.5 h; library: site-saturation at positions 5, 18, 19, 20
Lab note: anything with shrunken log2 fold change at or over -0.04 counts as rule met; the rest go in rule not met.

- biosequence: "RRIRHRPPRLPRPRPRPSNRPRP"
  testTarget: "Escherichia coli TOP10"
  groupLabel: "rule not met"
- biosequence: "RRIRVRPPRLPRPRPRPVYLPRP"
  testTarget: "Escherichia coli TOP10"
  groupLabel: "rule not met"
- biosequence: "RRIRIRPPRLPRPRPRPEAKPRP"
  testTarget: "Escherichia coli TOP10"
  groupLabel: "rule met"
- biosequence: "RRIRWRPPRLPRPRPRPRPRPRP"
  testTarget: "Escherichia coli TOP10"
  groupLabel: "rule met"
- biosequence: "RRIRIRPPRLPRPRPRPYFVPRP"
  testTarget: "Escherichia coli TOP10"
  groupLabel: "rule not met"
- biosequence: "RRIRWRPPRLPRPRPRPCWMPRP"
  testTarget: "Escherichia coli TOP10"
  groupLabel: "rule met"
- biosequence: "RRIRVRPPRLPRPRPRPADNPRP"
  testTarget: "Escherichia coli TOP10"
  groupLabel: "rule met"
- biosequence: "RRIRVRPPRLPRPRPRPTVRPRP"
  testTarget: "Escherichia coli TOP10"
  groupLabel: "rule met"
- biosequence: "RRIRYRPPRLPRPRPRPWLDPRP"
  testTarget: "Escherichia coli TOP10"
  groupLabel: "rule not met"
- biosequence: "RRIRTRPPRLPRPRPRPCSQPRP"
  testTarget: "Escherichia coli TOP10"
  groupLabel: "rule met"
- biosequence: "RRIRKRPPRLPRPRPRPNFKPRP"
  testTarget: "Escherichia coli TOP10"
  groupLabel: "rule met"
- biosequence: "RRIRERPPRLPRPRPRPHWAPRP"
  testTarget: "Escherichia coli TOP10"
  groupLabel: "rule met"
- biosequence: "RRIRQRPPRLPRPRPRPSMDPRP"
  testTarget: "Escherichia coli TOP10"
  groupLabel: "rule not met"
- biosequence: "RRIRQRPPRLPRPRPRPCFIPRP"
  testTarget: "Escherichia coli TOP10"
  groupLabel: "rule not met"
- biosequence: "RRIRIRPPRLPRPRPRPCNNPRP"
  testTarget: "Escherichia coli TOP10"
  groupLabel: "rule not met"
- biosequence: "RRIRMRPPRLPRPRPRPENLPRP"
  testTarget: "Escherichia coli TOP10"
  groupLabel: "rule met"
- biosequence: "RRIRVRPPRLPRPRPRPGPFPRP"
  testTarget: "Escherichia coli TOP10"
  groupLabel: "rule met"
- biosequence: "RRIRHRPPRLPRPRPRPIPFPRP"
  testTarget: "Escherichia coli TOP10"
  groupLabel: "rule met"
- biosequence: "RRIRHRPPRLPRPRPRPAKRPRP"
  testTarget: "Escherichia coli TOP10"
  groupLabel: "rule not met"
- biosequence: "RRIRLRPPRLPRPRPRPSLKPRP"
  testTarget: "Escherichia coli TOP10"
  groupLabel: "rule met"
- biosequence: "RRIRMRPPRLPRPRPRPCRMPRP"
  testTarget: "Escherichia coli TOP10"
  groupLabel: "rule met"
- biosequence: "RRIRARPPRLPRPRPRPEKQPRP"
  testTarget: "Escherichia coli TOP10"
  groupLabel: "rule not met"
- biosequence: "RRIRCRPPRLPRPRPRPSIHPRP"
  testTarget: "Escherichia coli TOP10"
  groupLabel: "rule not met"
- biosequence: "RRIRCRPPRLPRPRPRPYTIPRP"
  testTarget: "Escherichia coli TOP10"
  groupLabel: "rule not met"
- biosequence: "RRIRERPPRLPRPRPRPAPGPRP"
  testTarget: "Escherichia coli TOP10"
  groupLabel: "rule met"
- biosequence: "RRIRRRPPRLPRPRPRPGDYPRP"
  testTarget: "Escherichia coli TOP10"
  groupLabel: "rule not met"
- biosequence: "RRIRGRPPRLPRPRPRPDLLPRP"
  testTarget: "Escherichia coli TOP10"
  groupLabel: "rule met"
- biosequence: "RRIRHRPPRLPRPRPRPQVKPRP"
  testTarget: "Escherichia coli TOP10"
  groupLabel: "rule not met"
- biosequence: "RRIRLRPPRLPRPRPRPMDQPRP"
  testTarget: "Escherichia coli TOP10"
  groupLabel: "rule not met"
- biosequence: "RRIRHRPPRLPRPRPRPVEFPRP"
  testTarget: "Escherichia coli TOP10"
  groupLabel: "rule not met"
- biosequence: "RRIRGRPPRLPRPRPRPYRGPRP"
  testTarget: "Escherichia coli TOP10"
  groupLabel: "rule not met"
- biosequence: "RRIRFRPPRLPRPRPRPPQKPRP"
  testTarget: "Escherichia coli TOP10"
  groupLabel: "rule met"
- biosequence: "RRIRDRPPRLPRPRPRPELIPRP"
  testTarget: "Escherichia coli TOP10"
  groupLabel: "rule met"
- biosequence: "RRIRRRPPRLPRPRPRPQSHPRP"
  testTarget: "Escherichia coli TOP10"
  groupLabel: "rule not met"
- biosequence: "RRIRKRPPRLPRPRPRPQAHPRP"
  testTarget: "Escherichia coli TOP10"
  groupLabel: "rule met"
- biosequence: "RRIRMRPPRLPRPRPRPMKGPRP"
  testTarget: "Escherichia coli TOP10"
  groupLabel: "rule met"
- biosequence: "RRIRCRPPRLPRPRPRPTTVPRP"
  testTarget: "Escherichia coli TOP10"
  groupLabel: "rule not met"
- biosequence: "RRIRNRPPRLPRPRPRPNQMPRP"
  testTarget: "Escherichia coli TOP10"
  groupLabel: "rule not met"
- biosequence: "RRIRVRPPRLPRPRPRPIKEPRP"
  testTarget: "Escherichia coli TOP10"
  groupLabel: "rule not met"
- biosequence: "RRIRNRPPRLPRPRPRPDVAPRP"
  testTarget: "Escherichia coli TOP10"
  groupLabel: "rule met"
- biosequence: "RRIRARPPRLPRPRPRPQCWPRP"
  testTarget: "Escherichia coli TOP10"
  groupLabel: "rule met"
- biosequence: "RRIRRRPPRLPRPRPRPTRMPRP"
  testTarget: "Escherichia coli TOP10"
  groupLabel: "rule met"
- biosequence: "RRIRARPPRLPRPRPRPWPVPRP"
  testTarget: "Escherichia coli TOP10"
  groupLabel: "rule met"
- biosequence: "RRIRTRPPRLPRPRPRPMCCPRP"
  testTarget: "Escherichia coli TOP10"
  groupLabel: "rule not met"
- biosequence: "RRIRWRPPRLPRPRPRPKGTPRP"
  testTarget: "Escherichia coli TOP10"
  groupLabel: "rule not met"
- biosequence: "RRIRNRPPRLPRPRPRPYASPRP"
  testTarget: "Escherichia coli TOP10"
  groupLabel: "rule not met"
- biosequence: "RRIRTRPPRLPRPRPRPGQYPRP"
  testTarget: "Escherichia coli TOP10"
  groupLabel: "rule not met"
- biosequence: "RRIRQRPPRLPRPRPRPTQCPRP"
  testTarget: "Escherichia coli TOP10"
  groupLabel: "rule not met"
- biosequence: "RRIRDRPPRLPRPRPRPWYNPRP"
  testTarget: "Escherichia coli TOP10"
  groupLabel: "rule not met"
- biosequence: "RRIRERPPRLPRPRPRPSMNPRP"
  testTarget: "Escherichia coli TOP10"
  groupLabel: "rule not met"
- biosequence: "RRIRYRPPRLPRPRPRPIAEPRP"
  testTarget: "Escherichia coli TOP10"
  groupLabel: "rule met"
- biosequence: "RRIRHRPPRLPRPRPRPGNRPRP"
  testTarget: "Escherichia coli TOP10"
  groupLabel: "rule met"
- biosequence: "RRIRHRPPRLPRPRPRPVMWPRP"
  testTarget: "Escherichia coli TOP10"
  groupLabel: "rule met"
- biosequence: "RRIRSRPPRLPRPRPRPYMIPRP"
  testTarget: "Escherichia coli TOP10"
  groupLabel: "rule not met"
- biosequence: "RRIRMRPPRLPRPRPRPIQDPRP"
  testTarget: "Escherichia coli TOP10"
  groupLabel: "rule not met"
- biosequence: "RRIRSRPPRLPRPRPRPRPPPRP"
  testTarget: "Escherichia coli TOP10"
  groupLabel: "rule met"
- biosequence: "RRIRYRPPRLPRPRPRPPDNPRP"
  testTarget: "Escherichia coli TOP10"
  groupLabel: "rule not met"
- biosequence: "RRIRYRPPRLPRPRPRPAVTPRP"
  testTarget: "Escherichia coli TOP10"
  groupLabel: "rule not met"
- biosequence: "RRIRTRPPRLPRPRPRPGHMPRP"
  testTarget: "Escherichia coli TOP10"
  groupLabel: "rule not met"
- biosequence: "RRIRHRPPRLPRPRPRPRKNPRP"
  testTarget: "Escherichia coli TOP10"
  groupLabel: "rule met"
- biosequence: "RRIRLRPPRLPRPRPRPIFWPRP"
  testTarget: "Escherichia coli TOP10"
  groupLabel: "rule not met"
- biosequence: "RRIRERPPRLPRPRPRPLGLPRP"
  testTarget: "Escherichia coli TOP10"
  groupLabel: "rule met"
